Each recorded value in this set is attributed to the NIST ThermoML archive (doi:10.1016/j.jct.2017.08.032).

details: 313.15 K; 101.33 kPa; Liquid; Vibrating tube method
Entries annotated with measured mass density
reported.endpoint: mass density (kg/m3)

> print(dat)
                                   compound  value.reported
1  CCCC[n+]1ccn(C)c1.O=S(=O)([N-]S(=O)(=O)C(F)(F)F)C(F)(F)F            1418
2  CCCCn1cc[n+](C)c1.CCOS(=O)(=O)[O-] [1-butyl-3-methyl-1H-imidazolium ethyl sulfate]            1173
3  CCCCn1cc[n+](C)c1.F[P-](F)(F)(F)(F)F [1-butyl-3-methylimidazolium hexafluorophosphate]            1354
4  CCCCn1cc[n+](C)c1.O=S(=O)([O-])C(F)(F)F [1-butyl-3-methylimidazolium trifluoromethanesulfonate]            1285
5  CCn1cc[n+](C)c1.O=S(=O)([N-]S(=O)(=O)C(F)(F)F)C(F)(F)F            1500

----------
Reported mass density values are given for each entry in this list.
settings: 323.15 K; 101.33 kPa; Liquid; Vibrating tube method
reported.endpoint: mass density (kg/m3)

> print(dat)
                                   molecule  reported.endpoint  units.of.measure  value.reported
1  CCCCn1cc[n+](C)c1.O=S(=O)([O-])C(F)(F)F [1-butyl-3-methylimidazolium trifluoromethanesulfonate]       mass density             kg/m3            1277
2  CCCCn1cc[n+](C)c1.F[P-](F)(F)(F)(F)F [1-butyl-3-methylimidazolium hexafluorophosphate]       mass density             kg/m3            1346
3  CCCCn1cc[n+](C)c1.CCOS(=O)(=O)[O-] [1-butyl-3-methyl-1H-imidazolium ethyl sulfate]       mass density             kg/m3            1166
4  CCCC[n+]1ccn(C)c1.O=S(=O)([N-]S(=O)(=O)C(F)(F)F)C(F)(F)F       mass density             kg/m3            1408
5  CCn1cc[n+](C)c1.O=S(=O)([N-]S(=O)(=O)C(F)(F)F)C(F)(F)F       mass density             kg/m3            1491

----------
settings: 353.15 K; 101.33 kPa; Liquid; Vibrating tube method
List of mass density values.
reported.endpoint: mass density (kg/m3)

> print(dat)
                                   molecule  units.of.measure  value.reported
1  CCCC[n+]1ccn(C)c1.O=S(=O)([N-]S(=O)(=O)C(F)(F)F)C(F)(F)F             kg/m3            1379
2  CCCCn1cc[n+](C)c1.CCOS(=O)(=O)[O-] [1-butyl-3-methyl-1H-imidazolium ethyl sulfate]             kg/m3            1146
3  CCCCn1cc[n+](C)c1.F[P-](F)(F)(F)(F)F [1-butyl-3-methylimidazolium hexafluorophosphate]             kg/m3            1323
4  CCn1cc[n+](C)c1.O=S(=O)([N-]S(=O)(=O)C(F)(F)F)C(F)(F)F             kg/m3            1465
5  CCCCn1cc[n+](C)c1.O=S(=O)([O-])C(F)(F)F [1-butyl-3-methylimidazolium trifluoromethanesulfonate]             kg/m3            1254
